# Assay System: α4β2 nAChR (Homo sapiens (Human), UniProt P17787+P43681)
# Test Parameters: human α4β2 in HEK 293, 0.25 nM [3H]-epibatidine; range printed after the value
Value Type: pKi
As a rule, pKi stands for the negative log10 of the concentration, concentration in M.

Please give the measured pKi for this molecule: O=c1cccc2n1C[C@@H]1CNC[C@H]2C1 [Cytisine, cytisine]
8.90

###

# Assay System: (α4)3(β2)2 nAChRs (Homo sapiens (Human), UniProt P17787+P43681)
# Sequence (P43681 29-627): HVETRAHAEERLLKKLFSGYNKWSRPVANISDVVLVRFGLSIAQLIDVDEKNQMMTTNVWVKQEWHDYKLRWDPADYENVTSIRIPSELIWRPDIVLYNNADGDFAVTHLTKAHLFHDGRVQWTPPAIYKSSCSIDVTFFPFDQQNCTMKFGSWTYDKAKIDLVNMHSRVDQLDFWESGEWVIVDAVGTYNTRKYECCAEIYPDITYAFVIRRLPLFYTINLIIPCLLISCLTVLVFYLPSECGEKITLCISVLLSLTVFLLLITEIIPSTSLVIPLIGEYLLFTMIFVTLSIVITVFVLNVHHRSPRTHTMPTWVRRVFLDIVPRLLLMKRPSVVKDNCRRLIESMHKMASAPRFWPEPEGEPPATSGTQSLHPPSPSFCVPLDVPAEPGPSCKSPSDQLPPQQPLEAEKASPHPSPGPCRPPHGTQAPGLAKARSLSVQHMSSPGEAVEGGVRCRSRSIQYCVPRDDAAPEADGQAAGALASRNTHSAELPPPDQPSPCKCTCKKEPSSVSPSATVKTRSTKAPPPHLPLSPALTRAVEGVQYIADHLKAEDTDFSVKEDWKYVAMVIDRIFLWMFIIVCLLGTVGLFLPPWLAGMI
# Sequence (P17787 26-502): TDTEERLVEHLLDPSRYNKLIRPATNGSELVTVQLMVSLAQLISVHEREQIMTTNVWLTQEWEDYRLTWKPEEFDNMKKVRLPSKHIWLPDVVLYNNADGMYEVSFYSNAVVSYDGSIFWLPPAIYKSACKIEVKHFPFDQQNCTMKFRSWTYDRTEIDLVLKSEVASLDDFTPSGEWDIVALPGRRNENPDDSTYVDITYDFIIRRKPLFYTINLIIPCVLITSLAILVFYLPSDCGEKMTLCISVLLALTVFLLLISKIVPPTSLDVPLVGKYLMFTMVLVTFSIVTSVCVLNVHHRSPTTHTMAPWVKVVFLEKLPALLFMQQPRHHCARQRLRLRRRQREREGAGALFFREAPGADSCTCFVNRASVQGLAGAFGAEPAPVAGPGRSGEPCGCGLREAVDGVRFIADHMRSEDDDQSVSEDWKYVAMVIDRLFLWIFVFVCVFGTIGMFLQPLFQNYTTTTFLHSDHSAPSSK
# Test: Maximal gating efficacy on (α4)3(β2)2 nAChRs in Xenopus oocytes, two electrode voltage clamp
# Type: cell-based
# Test Parameters: (α4)3(β2)2, low sensitivity stoichiometry; maximal current relative to 1 mM ACh
Measured Relative efficacy (ACh) of individual entries
Keep the answer to the number alone.

| Molecule | Assay System | Relative efficacy (ACh) |
| --- | --- | --- |
| O=c1cc(-c2ccncc2)cc2n1CC1CNC[C@@H]2C1 (single isomer, unassigned; (-)) [Compound 103, (−)4-(4-Pyridinyl)cytisine] | (α4)3(β2)2 nAChRs (Homo sapiens (Human), UniProt P17787+P43681) | 0.023 |
| O=c1cc(-c2ccccn2)cc2n1CC1CNC[C@@H]2C1 (single isomer, unassigned; (-)) [Compound 101, (−)4-(2-Pyridinyl)cytisine] | (α4)3(β2)2 nAChRs (Homo sapiens (Human), UniProt P17787+P43681) | 0.009 |
| CC(=O)NCc1cc2n(c(=O)c1)CC1CNC[C@@H]2C1.Cl (single isomer, unassigned; (-)) | (α4)3(β2)2 nAChRs (Homo sapiens (Human), UniProt P17787+P43681) | 0.041 |

Pending molecule:
Give its Relative efficacy (ACh) value. Item: N#Cc1cc2n(c(=O)c1)CC1CNC[C@@H]2C1 (single isomer, unassigned; (-)) [Compound 140, (−)4-Cyanocytisine]
0.050

Origin of measurements: patent US11667638B2
